- SYSTEM NAME: Tyrosine-protein kinase BTK (Homo sapiens, UniProt Q06187)
- Sequence (Q06187 whole entry): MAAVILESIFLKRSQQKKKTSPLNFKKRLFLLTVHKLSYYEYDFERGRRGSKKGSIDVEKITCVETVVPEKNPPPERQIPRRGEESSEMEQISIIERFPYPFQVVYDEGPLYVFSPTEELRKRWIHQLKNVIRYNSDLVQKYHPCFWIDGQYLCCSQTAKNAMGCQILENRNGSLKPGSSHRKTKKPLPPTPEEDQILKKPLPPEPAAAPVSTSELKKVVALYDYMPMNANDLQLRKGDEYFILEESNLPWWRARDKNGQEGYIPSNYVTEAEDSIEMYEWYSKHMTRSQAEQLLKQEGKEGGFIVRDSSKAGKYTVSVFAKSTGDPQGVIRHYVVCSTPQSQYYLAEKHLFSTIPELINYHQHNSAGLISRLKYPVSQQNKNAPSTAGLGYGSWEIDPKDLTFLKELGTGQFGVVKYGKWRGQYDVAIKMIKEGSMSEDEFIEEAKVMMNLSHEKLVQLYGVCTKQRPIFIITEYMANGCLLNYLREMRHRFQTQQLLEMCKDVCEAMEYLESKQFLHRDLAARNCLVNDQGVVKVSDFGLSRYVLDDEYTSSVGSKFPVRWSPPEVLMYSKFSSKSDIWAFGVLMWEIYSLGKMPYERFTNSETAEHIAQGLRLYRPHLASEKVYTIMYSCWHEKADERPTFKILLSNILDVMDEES
ENDPOINT LABEL: pIC50
Formally, pIC50 is defined as -log10 of the concentration c, with c in mol/L.

Tested on Tyrosine-protein kinase BTK (Homo sapiens, UniProt Q06187): `Cc1cc(Nc2cc(-c3ccc(F)c(N4Cc5cc(C(C)(C)C)sc5C4=O)c3)n[nH]c2=O)nn1C` . Observed pIC50: 8.05
